condition-set: in n-octanol, 303.15 K
Readings of solubility (mole fraction) for the listed compounds
measurement-kind: solubility (mole fraction)

{"smiles-code": "Br.Fc1ccc(NC2=NCCC3(CCCCC3)[Se]2)cc1", "numeric-result": 0.0042}
{"smiles-code": "Br.CC(C)c1ccc(NC2=NCCC3(CCCCC3)[Se]2)cc1", "numeric-result": 0.0647}
{"smiles-code": "Br.c1ccc(NC2=NCCC3(CCCCC3)[Se]2)cc1", "numeric-result": 0.0278}

###

Each entry below carries its reported solubility (mole fraction).
condition-set: in n-octanol, 298.15 K
measurement-kind: solubility (mole fraction)

{"smiles-code": "Br.c1ccc(NC2=NCCC3(CCCCC3)[Se]2)cc1", "numeric-result": 0.0229}
{"smiles-code": "Br.Fc1ccc(NC2=NCCC3(CCCCC3)[Se]2)cc1", "numeric-result": 0.0036}
{"smiles-code": "Br.CC(C)c1ccc(NC2=NCCC3(CCCCC3)[Se]2)cc1", "numeric-result": 0.0551}
